- Target: UniProtKB P31645
- Sequence (P31645 whole entry): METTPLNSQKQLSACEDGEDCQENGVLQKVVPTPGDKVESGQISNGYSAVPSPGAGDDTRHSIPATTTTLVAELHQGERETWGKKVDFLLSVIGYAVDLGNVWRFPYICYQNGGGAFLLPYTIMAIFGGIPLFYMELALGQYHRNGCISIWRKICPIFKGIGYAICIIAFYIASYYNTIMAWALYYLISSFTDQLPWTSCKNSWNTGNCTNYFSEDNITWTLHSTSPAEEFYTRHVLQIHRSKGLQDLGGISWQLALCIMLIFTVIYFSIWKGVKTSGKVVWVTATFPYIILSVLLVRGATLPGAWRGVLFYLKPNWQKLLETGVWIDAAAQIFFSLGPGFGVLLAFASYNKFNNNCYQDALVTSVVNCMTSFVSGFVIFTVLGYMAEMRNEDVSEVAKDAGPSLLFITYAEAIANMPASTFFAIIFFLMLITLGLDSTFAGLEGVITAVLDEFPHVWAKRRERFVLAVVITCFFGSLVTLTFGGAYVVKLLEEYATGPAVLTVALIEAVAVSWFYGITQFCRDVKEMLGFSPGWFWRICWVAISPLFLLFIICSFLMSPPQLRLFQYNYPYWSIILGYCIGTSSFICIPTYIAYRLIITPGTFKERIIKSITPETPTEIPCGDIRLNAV
- Details: read-out: Ki
Assay readout: Ki (µM)

Molecular string	Assay readout	Unit	Data value
CN1CCc2c(c3cccc4c3n2CCc2ccccc2-4)C1	Ki	µM	0.413

* * *

Here, each record is paired with measured pKi data.
- Target: Sodium-dependent noradrenaline transporter (Homo sapiens, UniProt P23975)
- Sequence (P23975 whole entry): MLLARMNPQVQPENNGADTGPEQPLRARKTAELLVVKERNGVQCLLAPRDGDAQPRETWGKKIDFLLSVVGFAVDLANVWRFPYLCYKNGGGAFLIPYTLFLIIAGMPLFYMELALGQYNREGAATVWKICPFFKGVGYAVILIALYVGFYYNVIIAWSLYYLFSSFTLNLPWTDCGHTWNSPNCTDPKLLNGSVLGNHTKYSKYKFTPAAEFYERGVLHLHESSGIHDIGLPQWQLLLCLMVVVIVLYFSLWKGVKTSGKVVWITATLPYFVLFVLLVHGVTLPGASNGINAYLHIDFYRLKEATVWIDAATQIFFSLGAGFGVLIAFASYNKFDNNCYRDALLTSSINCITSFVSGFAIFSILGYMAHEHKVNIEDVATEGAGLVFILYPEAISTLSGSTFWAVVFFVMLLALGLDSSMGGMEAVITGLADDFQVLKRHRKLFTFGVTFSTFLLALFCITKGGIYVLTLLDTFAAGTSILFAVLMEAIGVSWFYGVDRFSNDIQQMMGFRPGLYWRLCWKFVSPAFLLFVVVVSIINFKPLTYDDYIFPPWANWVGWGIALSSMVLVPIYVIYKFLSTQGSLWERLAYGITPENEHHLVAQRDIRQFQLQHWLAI
- Assay details: Displacement of [3H]Nisoxetine from norepinephrine transporter (unknown origin)
- Details: read-out: Ki
pKi: −log10 of the molar value.

Molecular string	Target	pKi
CN1CCc2c(c3cccc4c3n2Cc2ccccc2C4)C1	Sodium-dependent noradrenaline transporter (Homo sapiens, UniProt P23975)	5.87
CN1CCc2c(c3cccc4c3n2CCc2ccccc2-4)C1	Sodium-dependent noradrenaline transporter (Homo sapiens, UniProt P23975)	5.71
